# Assay System: ATP-binding cassette sub-family C member 2 (Homo sapiens, UniProt Q92887)
# Sequence (Q92887 whole entry): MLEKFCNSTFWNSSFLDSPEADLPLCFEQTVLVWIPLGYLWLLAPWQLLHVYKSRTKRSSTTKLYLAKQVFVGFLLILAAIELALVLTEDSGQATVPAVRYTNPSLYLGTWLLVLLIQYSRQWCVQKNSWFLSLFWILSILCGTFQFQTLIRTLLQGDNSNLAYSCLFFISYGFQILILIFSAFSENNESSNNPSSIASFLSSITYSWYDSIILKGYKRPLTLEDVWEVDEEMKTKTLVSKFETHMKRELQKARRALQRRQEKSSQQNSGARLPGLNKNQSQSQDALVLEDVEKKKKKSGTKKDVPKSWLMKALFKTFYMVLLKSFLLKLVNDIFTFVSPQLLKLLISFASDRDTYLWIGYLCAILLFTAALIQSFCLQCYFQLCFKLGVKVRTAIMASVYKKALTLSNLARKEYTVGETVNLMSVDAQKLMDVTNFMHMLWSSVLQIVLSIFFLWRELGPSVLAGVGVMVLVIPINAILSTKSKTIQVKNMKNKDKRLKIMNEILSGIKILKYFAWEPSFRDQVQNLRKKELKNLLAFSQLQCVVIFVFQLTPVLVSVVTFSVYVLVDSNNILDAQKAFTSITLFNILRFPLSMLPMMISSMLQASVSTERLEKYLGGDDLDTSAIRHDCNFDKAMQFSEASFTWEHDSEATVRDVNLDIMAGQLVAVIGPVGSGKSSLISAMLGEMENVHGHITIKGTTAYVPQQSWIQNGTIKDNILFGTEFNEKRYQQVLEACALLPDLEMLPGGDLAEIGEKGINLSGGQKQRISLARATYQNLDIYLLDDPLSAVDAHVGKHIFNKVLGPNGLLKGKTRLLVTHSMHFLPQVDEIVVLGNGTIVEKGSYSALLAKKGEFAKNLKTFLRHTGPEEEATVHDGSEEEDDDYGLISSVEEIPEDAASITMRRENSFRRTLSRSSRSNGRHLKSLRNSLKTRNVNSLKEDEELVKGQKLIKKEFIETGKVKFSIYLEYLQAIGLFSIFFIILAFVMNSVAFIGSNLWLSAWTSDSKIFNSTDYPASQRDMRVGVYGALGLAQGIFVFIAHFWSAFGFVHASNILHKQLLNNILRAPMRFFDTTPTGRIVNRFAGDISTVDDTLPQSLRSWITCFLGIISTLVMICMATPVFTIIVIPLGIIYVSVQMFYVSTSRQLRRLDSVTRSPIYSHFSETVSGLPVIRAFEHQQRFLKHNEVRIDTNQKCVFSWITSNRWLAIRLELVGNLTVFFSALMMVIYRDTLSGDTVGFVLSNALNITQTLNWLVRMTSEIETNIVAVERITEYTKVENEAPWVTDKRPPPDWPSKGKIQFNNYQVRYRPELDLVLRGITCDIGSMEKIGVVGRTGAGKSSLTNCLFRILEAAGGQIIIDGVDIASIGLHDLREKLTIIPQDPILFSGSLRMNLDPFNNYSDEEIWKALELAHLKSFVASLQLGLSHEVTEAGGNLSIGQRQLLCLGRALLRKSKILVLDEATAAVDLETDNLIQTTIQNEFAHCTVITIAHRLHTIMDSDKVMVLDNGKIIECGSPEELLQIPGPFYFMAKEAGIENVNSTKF
# Experiment: Stimulation of ATPase activity of human MRP2 assessed as inorganic phosphate
Metric: pEC50
In plain terms, pEC50 is the concentration in mol/L turned into minus its base-10 logarithm.

Example entries begin here.
Cc1[nH]c(C(=O)NC2CCN(c3ncc(C(=O)O)s3)CC2)c(Cl)c1Cl
3.84
CO[C@H]1CN(c2ncc(C(=O)O)s2)CC[C@H]1NC(=O)c1[nH]c(C)c(Cl)c1Cl
4.15

// next item, pEC50 requested
The reported pEC50 of the molecule CO[C@H]1CN(c2nc(-c3ncnn3C)c(C(=O)O)s2)CC[C@H]1NC(=O)c1[nH]c(C)c(Cl)c1Cl was 3.85
